testName: Single-dose plasma pharmacokinetics of intravenous VPA
testParameters: human, plasma, iv, 130 mg/kg
reportedProperty: AUC (µg·h/mL)
One number for each entry, in µg·h/mL.

Request: Any idea what its AUC is? The compound is CCCC(CCC)C(=O)O [VPA, valproic acid]
Result: 7740

---

testName: Single-dose plasma pharmacokinetics of intravenous VPA
testParameters: human, plasma, iv, 30 mg/kg
reportedProperty: AUC (µg·h/mL)
Numbers only, in µg·h/mL.

Request: Any idea what its AUC is? The compound is CCCC(CCC)C(=O)O [VPA, valproic acid]
Result: 2200

---

testName: Single-dose plasma pharmacokinetics of intravenous VPA
testParameters: human, plasma, iv, 120 mg/kg
reportedProperty: AUC(0-inf) (µg·h/mL)
Give bare numbers, in µg·h/mL.

Request: Any idea what its AUC(0-inf) is? The compound is CCCC(CCC)C(=O)O
Result: 4980

---

testName: Single-dose plasma pharmacokinetics of intravenous VPA
testParameters: human, plasma, intravenous, 150 mg/kg
reportedProperty: concentration at 24 h (µg/mL)
Give bare numbers, in µg/mL.

Request: Any idea what its concentration at 24 h is? The compound is CCCC(CCC)C(=O)O [VPA, valproic acid]
Result: 81.4

---

testName: Single-dose plasma pharmacokinetics of intravenous VPA
testParameters: human, plasma, iv, 130 mg/kg
reportedProperty: Cmax (µg/mL)
Answers are plain numbers, in µg/mL.

Request: Any idea what its Cmax is? The compound is CCCC(CCC)C(=O)O
Result: 855

---

testName: Single-dose plasma pharmacokinetics of intravenous VPA
testParameters: human, plasma, iv, 15 mg/kg
reportedProperty: half-life
Value and unit, in that order.

Request: Any idea what its half-life is? The compound is CCCC(CCC)C(=O)O
Result: 12.1 h

---

testName: Single-dose plasma pharmacokinetics of intravenous VPA
testParameters: human, plasma, intravenous, 90 mg/kg
reportedProperty: concentration at 24 h (µg/mL)
Give bare numbers, in µg/mL.

Request: Any idea what its concentration at 24 h is? The compound is CCCC(CCC)C(=O)O
Result: 56.9

---

testName: Single-dose plasma pharmacokinetics of intravenous VPA
testParameters: human, plasma, iv, 15 mg/kg
reportedProperty: Cmax (µg/mL)
Give bare numbers, in µg/mL.

Request: Any idea what its Cmax is? The compound is CCCC(CCC)C(=O)O
Result: 112

---

testName: Single-dose plasma pharmacokinetics of intravenous VPA
testParameters: human, plasma, iv, 140 mg/kg
reportedProperty: AUC(0-inf) (µg·h/mL)
One number for each entry, in µg·h/mL.

Request: Any idea what its AUC(0-inf) is? The compound is CCCC(CCC)C(=O)O
Result: 13500

---

testName: Single-dose plasma pharmacokinetics of intravenous VPA
testParameters: human, plasma, iv, 30 mg/kg
reportedProperty: half-life

Request: Any idea what its half-life is? The compound is CCCC(CCC)C(=O)O [VPA, valproic acid]
Result: 12.1 h

---

testName: Single-dose plasma pharmacokinetics of intravenous VPA
testParameters: human, plasma, iv, 60 mg/kg
reportedProperty: Cmax (µg/mL)
One number for each entry, in µg/mL.

Request: Any idea what its Cmax is? The compound is CCCC(CCC)C(=O)O [VPA, valproic acid]
Result: 248

Taken from paper PMC5699961.
